Target: DLG1_3, Q12959
Sequence (Q12959 457-571): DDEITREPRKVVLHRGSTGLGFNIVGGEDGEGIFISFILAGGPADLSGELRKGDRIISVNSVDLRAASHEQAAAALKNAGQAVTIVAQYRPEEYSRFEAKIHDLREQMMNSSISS
Test: holdup assay
Parameters: key: below the threshold = too weak to quantify, mostly under pKd 3.1 to 4
Settings: plain residues with an end cap or a label only (N-terminal biotin on a linker: ttds)
Would you mind labelling by pKd? At or over 4 is fulfilled, under is not fulfilled.

{"columns": ["BINDER", "GROUP"],
 "data": [
  ["KKYVDAETSL [SLC4A7, Q9Y6M7]", "not fulfilled"]
]}

Input line: Does the reported pKd for PVRVCEETSL [OTULIN, Q96BN8] fall at or above the 4 mark?
Output line: fulfilled

Input line: Answer whether pKd of SKPTRRETEV [HPV35-E6, P27228] is greater than or equal to 4.
Output line: fulfilled

Input line: Hello, I need to know if RHTTSTETAV [HPV30-E6, P36809] has measured pKd not below 4. Thanks!
Output line: fulfilled

Input line: Say whether RLQRRRETQV [HPV18-E6, P06463] shows pKd of 4 or more.
Output line: fulfilled

Input line: Given the entry RLPKIKETTV [FRMPD4, Q14CM0] , answer whether its pKd meets or surpasses 4.
Output line: fulfilled
